system: 786-0; assay: NCI tumour cell line growth inhibition, 48 h
Active and inactive are the calls of the source. Rule as the data show it: active = GI50 up to about 1.1 µM and inactive = higher.
Select the correct class. Options are active, inactive and nothing else.

- CC1NC(C(=O)O)Cc2cc(O)c(O)cc21 (stereo not given): inactive
- Nc1n[n+]([O-])c2cc([N+](=O)[O-])ccc2[n+]1[O-]: inactive
- COc1cc(/C=N/c2nncs2)ccc1O: inactive
- Cn1c(=O)c2c(no[n+]2[O-])c2ccccc21: inactive
- O/N=C(\c1nc2ccc(Cl)cc2nc1O)C(O)c1ccc(Cl)cc1Cl (stereo not given): inactive

Now, please, on to the next molecule.
Inquiry: Per the assay record, what outcome was assigned to O=C(COc1ccc(OCC(=O)N2C(=O)CC(=O)N(c3ccc(Cl)cc3)C2=S)cc1)N1C(=O)CC(=O)N(c2ccc(Cl)cc2)C1=S ?
Reply text: inactive

---

test system: MOLT-4; assay: NCI tumour cell line growth inhibition, 48 h
Active and inactive are the calls of the source. Rule as the data show it: active = GI50 up to about 1.1 µM and inactive = higher.
GI50 listing for selected compounds.

Inquiry: Need GI50 of c1c[nH]c(Cc2nc(Cc3c[nH]cn3)c[nH]2)n1 , thanks.
Reply text: 3.48 µM (inactive)

Inquiry: Need GI50 of COc1ccc(/C=[N+](\[O-])[C@H](COCc2ccccc2)c2ccccc2)cc1 , thanks.
Reply text: 25.2 µM (inactive)

Inquiry: Need GI50 of CC(=O)O[C@H]1[C@@H](OC2CCCC2(c2ccccc2)c2ccccc2)O[N+]([O-])=C[C@@]12COCc1cc3c(cc12)OCO3 (stereo partly drawn) , thanks.
Reply text: 2.52 µM (inactive)

---

test system: UACC-257; test: NCI tumour cell line growth inhibition, 48 h
Activity calls are given as the source filed them. Rule as the data show it: active = GI50 up to about 1.1 µM and inactive = higher. Residues, ends and D or L forms follow the SMILES beside them. *: point of attachment. Cbz = O=C(OCc1ccccc1)*; Boc = CC(C)(C)OC(=O)*; OSu = O=C1CCC(=O)N1O*; Bn = c1ccc(C*)cc1
quantity.name: GI50

Some compounds with recorded GI50:
* C[C@]12CC[C@H](O)CC1=CC[C@@H]1[C@@H]2CC[C@]2(C)/C(=N/OCCN3CCCC3)CC[C@@H]12 | 14.6 µM (inactive)
* COc1cc2c(cc1OC)C1c3ccccc3CCN1CC2 (configuration not stated) | > 100 µM (inactive)
* Cc1ccc2c(C3Cc4ccccc4N3C(=O)/C=C\C(=O)O)c(C)[nH]c2c1 (configuration not stated) | 41.3 µM (inactive)
* CC(C)(C)OC(=O)NC(Cc1ccc(OCc2ccccc2)cc1)C(=O)NC(CCCCNC(=O)OCc1ccccc1)C(=O)NC(CCCCNC(=O)OCc1ccccc1)C(=O)ON1C(=O)CCC1=O (configuration not stated) (Boc-Tyr(Bn)-Lys(Cbz)-Lys(Cbz)-OSu; configuration not given here) | > 100 µM (inactive)
* N#Cc1c(-c2ccc(Cl)cc2)cc(-c2ccc(Nc3ccnc4cc(Cl)ccc34)cc2)[nH]c1=O | > 100 µM (inactive)
* CC(C)=CCc1c(O)c(CC=C(C)C)c2oc3c(c(=O)c2c1O)C(C=C(C)C)Oc1cc(O)ccc1-3 (configuration not stated) | 14 µM (inactive)

Inquiry: Need GI50 of CN1CCN(c2ncc3c(n2)sc2c(=O)n(-c4ccccc4)cnc23)CC1 , thanks.
Reply text: > 100 µM (inactive)

Inquiry: Need GI50 of COC1=CC(C)C2C[C@H]3O[C@H](O)C[C@H]4C(C)C(=O)C(O)C([C@@]2(C)C1=O)[C@@]34C (some centres not stated) , thanks.
Reply text: > 100 µM (inactive)

Inquiry: Need GI50 of Cc1ccc([S+]([O-])(=Nc2ccccc2)C(C(C)C)C(C)(C)Cl)cc1 (configuration not stated) , thanks.
Reply text: 10.8 µM (inactive)

Inquiry: Need GI50 of O=c1c2cccnc2n2n1Cc1ccccc1C2 , thanks.
Reply text: > 100 µM (inactive)

Inquiry: Need GI50 of CCCCC/C(=N\c1[nH]cnc1C(N)=O)OCC , thanks.
Reply text: > 100 µM (inactive)

Inquiry: Need GI50 of Brc1ccc(C2CC(c3cccc4ccccc34)=Nc3ccccc3S2)cc1 (configuration not stated) , thanks.
Reply text: > 100 µM (inactive)

Inquiry: Need GI50 of CCOc1cc(C2CC(c3ccc(NS(=O)(=O)c4cc([N+](=O)[O-])ccc4C)cc3)=NN2S(=O)(=O)c2cc([N+](=O)[O-])ccc2C)ccc1O (configuration not stated) , thanks.
Reply text: 32.7 µM (inactive)

Inquiry: Need GI50 of COc1ccc(O)c2c(=O)ccccc12 , thanks.
Reply text: > 100 µM (inactive)

Inquiry: Need GI50 of C[C@]12CC[C@H](O)CC1=CC[C@@H]1C2CC[C@]2(C)NC(=O)C(C#N)CC12 (some centres not stated) , thanks.
Reply text: > 100 µM (inactive)

Inquiry: Need GI50 of CC1=CC(=O)/C(=C/NC(=S)Nc2ccc(S(N)(=O)=O)cc2)C(=O)O1 , thanks.
Reply text: > 100 µM (inactive)

Inquiry: Need GI50 of CC1=C2C(=C[C@H]3[C@]4(C)CCCC(C)(C)[C@H]4CC[C@]34O[C@H]24)OC1=O , thanks.
Reply text: > 100 µM (inactive)

Inquiry: Need GI50 of Cc1ccc(C(=O)c2[nH]c(Nc3ccc(Cl)cc3)c(C(=S)Nc3ccccc3)c2N)cc1 , thanks.
Reply text: 18.7 µM (inactive)

Inquiry: Need GI50 of N#Cc1c(N2CCOCC2)ncn(-c2ccccc2)c1=O , thanks.
Reply text: > 100 µM (inactive)

---

system: NCI-H23; assay: NCI tumour cell line growth inhibition, 48 h
Calls of active or inactive are those of the source. Cut-off read from the data, not from the text of the source: active = GI50 up to about 1.1 µM and inactive = higher.
quantity.name: GI50

• Cc1cccc(/C(Br)=C2/OC(=O)c3ccccc32)c1 = > 100 µM (inactive)

Inquiry: Need GI50 of O=C1c2ccc3c4ccc5c6c(ccc(c7ccc(c2c37)C(=O)N1CCN1CCCCC1)c64)C(=O)N(CCN1CCCCC1)C5=O , thanks.
Reply text: > 100 µM (inactive)

Inquiry: Need GI50 of Cc1ccc(-c2nc3ccccc3c(=O)n2NCC2(O)OCC(O)C(O)C2O)cc1 (stereo not drawn) , thanks.
Reply text: > 100 µM (inactive)

Inquiry: Need GI50 of CC(=O)/C(C)=N/NC(=O)c1ccccc1O , thanks.
Reply text: > 10 µM (inactive)

Inquiry: Need GI50 of C[n+]1cccc(NC(=O)c2ccc(NC(=O)C34CCC(C(=O)Nc5ccc(C(=O)Nc6ccc[n+](C)c6)cc5)(CC3)CC4)cc2)c1 , thanks.
Reply text: 56.5 µM (inactive)

Inquiry: Need GI50 of c1ccc(C2=NN(c3nc4ccccc4s3)C3(CCCCC3)N2)nc1 , thanks.
Reply text: 24.9 µM (inactive)

Inquiry: Need GI50 of O/N=C(\c1nc2ccc(Cl)cc2nc1O)C(O)c1ccc(Cl)cc1Cl (stereo not drawn) , thanks.
Reply text: > 100 µM (inactive)

Inquiry: Need GI50 of O=C1CNC(=O)/C(=C/c2c[nH]c3ccccc23)N1 , thanks.
Reply text: > 100 µM (inactive)

---

tested on: SF-295; assay: NCI tumour cell line growth inhibition, 48 h
Structures can show the parent of a compound that is named as a salt. Activity calls are given as the source filed them. Rule as the data show it: active = GI50 up to about 1.1 µM and inactive = higher.
Select the correct class. Options are y = active, n = inactive and nothing else.

* CCc1ccc2c(c1)N(CC(C)CN(C)C)c1ccccc1S2 (stereo not drawn) [ETYMEMAZINE HYDROCHLORIDE] | n
* CCOc1ccc2c(c1)c(=O)c1c(NCCN(CC)CC)ccc3nnn2c31 | n

Inquiry: Per the assay record, what outcome was assigned to OC1(c2ccccc2)CSc2ncnn21 (stereo not drawn) ?
Reply text: n

Inquiry: Per the assay record, what outcome was assigned to COc1ccc2c(c1)c(=O)c1c(NCCNCCO)ccc3c(=O)n(CCN(C)C)c(=O)n2c31 ?
Reply text: y

Inquiry: Per the assay record, what outcome was assigned to NCCNc1nc(N2CCCC2)c2nc(Cl)c(NCc3ccccc3)nc2n1 ?
Reply text: n

Inquiry: Per the assay record, what outcome was assigned to N#CC1(C#N)C(c2ccccc2)C=CC12OCCCO2 (stereo not drawn) ?
Reply text: n

Inquiry: Per the assay record, what outcome was assigned to CC(C)(C)[Si](C)(C)OCC1CCC(n2cnc3c(N)ncnc32)O1 (stereo not drawn) ?
Reply text: n

---

system: HOP-62; test: NCI tumour cell line growth inhibition, 48 h
Calls of active or inactive are those of the source. Cut-off read from the data, not from the text of the source: active = GI50 up to about 1.1 µM and inactive = higher.
quantity.name: GI50

Some compounds with recorded GI50:
- COc1ccc(-c2nnc3c4ccccc4sn23)cc1: 5.69 µM (inactive)
- CC(CCC(=O)O)(c1cc(Br)c(O)c(Br)c1)c1cc(Br)c(O)c(Br)c1: 96.2 µM (inactive)
- COCC(O)CN1C(N)=NC(O)C1O (stereo not given): > 100 µM (inactive)
- Cc1csc(NNC(N)=O)n1: > 100 µM (inactive)
- COc1cc2c(cc1OC)C1c3ccccc3CCN1CC2 (stereo not given): 70.8 µM (inactive)
- Cc1ccc(C(=O)NC(C)(C)C)cc1/N=N/N(C)C: > 100 µM (inactive)
- OC1(c2ccccc2)CSc2ncnn21 (stereo not given): > 100 µM (inactive)
- COc1cccc2c(Nc3ccc(S(=O)(=O)NC(C)=O)cc3)c3ccc([N+](=O)[O-])cc3nc12: > 78.2 µM (inactive)
- CC(=O)O[C@H]1[C@@H](OC2CCCC2(c2ccccc2)c2ccccc2)O[N+]([O-])=C[C@@]12COCc1cc3c(cc12)OCO3 (stereo not given in full): 2.99 µM (inactive)

Inquiry: Need GI50 of CC1=CC(=O)/C(=C/NC(=S)Nc2ccc(S(N)(=O)=O)cc2)C(=O)O1 , thanks.
Reply text: > 100 µM (inactive)
